experiment: Plasma protein binding (RED), human; type: in vitro ADME; settings: pH 7.4, 10 μM, read-out: Plasma Protein Binding (% Bound) Human
reported metric: fraction unbound at 4 h, 10 μM
Just the number, please, no unit attached.

Fill in: fraction unbound at 4 h, 10 μM of Cc1ccc2nc(-c3ccc4nc(-c5ccc(NC(=O)c6cccc(Cl)c6)cc5)sc4c3)sc2c1S(=O)(=O)O [Compound 17] is ___ 0.01

* * *

biological target: NS3h_2a(JFH1) (Hepatitis C virus genotype 2a); construct: truncated C-terminally His-tagged NS3 proteins lacking the N-terminal protease, called NS3h; His-tag (C); made in house; test: MBHA, DNA substrate, genotype 2a helicase; type: biochemical, hepatitis C virus genotype 2a(JFH1); details: genotype 2a (JFH1); read-out: Target Potency MBHA (IC50 avg., μM) 2a (JFH1) (converted)
Sequence (Q99IB8 1196-1661): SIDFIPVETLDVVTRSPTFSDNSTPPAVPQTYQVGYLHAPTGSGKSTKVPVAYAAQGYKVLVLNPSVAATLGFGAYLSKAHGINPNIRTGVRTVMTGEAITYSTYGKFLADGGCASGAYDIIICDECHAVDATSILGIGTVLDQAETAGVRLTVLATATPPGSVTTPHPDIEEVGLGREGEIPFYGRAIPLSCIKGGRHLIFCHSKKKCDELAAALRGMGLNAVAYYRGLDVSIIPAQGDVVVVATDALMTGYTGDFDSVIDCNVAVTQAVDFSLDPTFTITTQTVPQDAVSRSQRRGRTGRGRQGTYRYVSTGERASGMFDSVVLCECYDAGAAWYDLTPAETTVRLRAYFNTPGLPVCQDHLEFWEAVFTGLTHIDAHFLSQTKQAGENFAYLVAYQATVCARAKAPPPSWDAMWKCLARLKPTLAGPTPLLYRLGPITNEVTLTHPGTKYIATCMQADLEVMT
hey, just use met if measured IC50 is less than 5 µM, otherwise not met

Field: example entries. Status: answers known.
chemical smiles | system under test | class
Cc1ccc2nc(-c3ccc4nc(-c5ccc(NC(=O)c6ccc(F)cc6)cc5)sc4c3)sc2c1S(=O)(=O)O.N | NS3h_2a(JFH1) (Hepatitis C virus genotype 2a) | met
Cc1ccc2nc(-c3ccc4nc(-c5ccc(NC(=O)Nc6ccc(F)cc6)cc5)sc4c3)sc2c1S(=O)(=O)O.N | NS3h_2a(JFH1) (Hepatitis C virus genotype 2a) | not met
Cc1ccc2nc(-c3ccc4nc(-c5ccc(NS(=O)(=O)c6ccc(C(F)(F)F)cc6)cc5)sc4c3)sc2c1S(=O)(=O)O | NS3h_2a(JFH1) (Hepatitis C virus genotype 2a) | not met
COC(=O)c1ccc(C(=O)Nc2ccc(-c3nc4ccc(-c5nc6ccc(C)c(S(=O)(=O)O)c6s5)cc4s3)cc2)cc1 | NS3h_2a(JFH1) (Hepatitis C virus genotype 2a) | met
Cc1ccc2nc(-c3ccc4nc(-c5ccc(NC(=O)c6ccc(NC(=O)OCC7c8ccccc8-c8ccccc87)cc6)cc5)sc4c3)sc2c1S(=O)(=O)O | NS3h_2a(JFH1) (Hepatitis C virus genotype 2a) | not met
Cc1ccc2nc(-c3ccc(NC(=O)c4ccc(NS(=O)(=O)c5ccccc5)cc4)cc3)sc2c1S(=O)(=O)O | NS3h_2a(JFH1) (Hepatitis C virus genotype 2a) | not met

Bench note: check whether `Cc1ccc2nc(-c3ccc4nc(-c5ccc(NC(=O)c6c(F)cccc6C(F)(F)F)cc5)sc4c3)sc2c1S(=O)(=O)O` shows IC50 below 5 µM not met

Input `Cc1ccc2nc(-c3ccc4nc(-c5ccc(NC(=O)c6cc(F)cc(C(F)(F)F)c6)cc5)sc4c3)sc2c1S(=O)(=O)O` ; condition: IC50 strictly below 5 µM. Does it hold? not met
